Test system: Pseudotyped HCV GT1b particles (HCVpp), entry into Huh7-high CD81 cells
Experiment: microbe, parasite or virus in culture
Format: cell-based, HCV GT1b Con1 strain
Settings: Hepatitis C virus, GT1B, 72 h, read-out: HCVpp GT-1b (EC50, μM)
Counter-ions that a name gives are not always drawn.
Lab note: anything with EC50 below 0.2 µM is marked T; values at 0.2 µM or higher are marked F.

# count of solved cases: 6
COc1ccc(-c2c(Cl)cc(Nc3n[nH]c(N)n3)cc2C(F)(F)F)cc1S(=O)(=O)NC1(C#N)CC1; T
Nc1nc(Nc2cc(Cl)c(-c3ccc(Cl)cc3Cl)c(Cl)c2)n[nH]1; F
CN(C)CCOc1ccc(-c2c(Cl)cc(Nc3n[nH]c(N)n3)cc2Cl)cc1; T
Nc1nc(Nc2cc(Cl)c(-c3ccc(OC4CCCNC4)cc3)c(C(F)(F)F)c2)n[nH]1 (stereo not drawn) [Compound 130, hydrochloride]; T
CC1(C)CS(=O)(=O)c2cc(-c3c(Cl)cc(Nc4n[nH]c(N)n4)cc3Cl)ccc2O1; F
COc1ccc(-c2c(Cl)cc(Nc3n[nH]c(N)n3)cc2C(F)(F)F)cc1S(=O)(=O)NC1CCNCC1 [Compound 204, hydrochloride]; T

Req: Please check: EC50 for CC1(NS(=O)(=O)c2ccc(-c3c(Cl)cc(Nc4n[nH]c(N)n4)cc3C(F)(F)F)cc2)CNC1 [Compound 207, hydrochloride] , strictly under 0.2 µM or not?
Resp: T

Req: Please check: EC50 for `Nc1nc(Nc2cc(Cl)c(-c3ccc(S(=O)(=O)N[C@H]4CC[C@H](O)CC4)cc3)c(C(F)(F)F)c2)n[nH]1` , strictly under 0.2 µM or not?
Resp: T

---

System: Pseudotyped HCV GT1b particles (HCVpp), entry into Huh7-high CD81 cells
Assay: microbe, parasite or virus in culture
Format: cell-based, HCV GT1b Con1 strain
Conditions: Hepatitis C virus, GT1B, 72 h, read-out: HCVpp GT-1b (EC50, μM)
Structures can show the parent of a compound that is named as a salt.
Would you mind telling me the reported log10(EC50) of each entry?
Record value = log10 of EC50 given in µM.

Hi team, please reply with log10(EC50) for each item in this list.
1. Nc1n[nH]c(Nc2cc(Cl)c(-c3ccc(OC4CCCNC4)cc3)c(Cl)c2)n1 (stereo not shown)
2. C[C@@H](NS(C)(=O)=O)c1ccc(-c2c(Cl)cc(Nc3n[nH]c(N)n3)cc2C(F)(F)F)cc1
3. CS(=O)(=O)c1ccc(-c2c(F)cc(Nc3nc(N)n[nH]3)cc2F)cc1
4. COc1ccc(-c2c(Cl)cc(Nc3n[nH]c(N)n3)cc2C(F)(F)F)cc1S(=O)(=O)C(C)C
5. Nc1nc(Nc2cc(Cl)c(-c3ccc(NC(=O)C4CCOCC4)cc3)c(Cl)c2)n[nH]1
6. CC(C)(C)OC(=O)N1CC(S(=O)(=O)c2ccc(-c3c(Cl)cc(Nc4n[nH]c(N)n4)cc3C(F)(F)F)cc2)C1
7. CN(C)S(=O)(=O)c1ccc(-c2c(Cl)cc(Nc3n[nH]c(N)n3)cc2C(F)(F)F)cc1

Resp:
-1.05
-1.24
-0.61
-1.31
-0.41
-2.10
-1.28

Hi team, please reply with log10(EC50) for each item in this list.
1. CC(=O)c1ccc(-c2c(Cl)cc(Nc3n[nH]c(N)n3)cc2Cl)cc1
2. COc1ccc(-c2c(Cl)cc(Nc3n[nH]c(N)n3)cc2C(F)(F)F)cc1S(N)(=O)=O
3. Nc1nc(Nc2cc(Cl)c(-c3ccc(OC4CCNCC4)cc3)c(C(F)(F)F)c2)n[nH]1 [Compound 139, hydrochloride]
4. CN(C)S(=O)(=O)c1ccc(-c2c(F)cc(Nc3n[nH]c(N)n3)cc2Cl)cc1
5. CC(C)S(=O)(=O)c1ccc(-c2c(F)cc(Nc3n[nH]c(N)n3)cc2Cl)cc1
6. CCCCC(=O)Nc1ccc(-c2ccc(Nc3n[nH]c(N)n3)cc2)cc1

Resp:
-0.64
-1.44
-1.38
-0.91
-1.04
0.75

Hi team, please reply with log10(EC50) for each item in this list.
1. CCCOC(=O)Nc1ccc(-c2c(Cl)cc(Nc3n[nH]c(N)n3)cc2C(F)(F)F)cc1
2. NCCOc1ccc(-c2c(Cl)cc(Nc3n[nH]c(N)n3)cc2C(F)(F)F)cc1 [Compound 135, hydrochloride]

Resp:
1. -1.24
2. -1.11

The compound listed as COc1ccc(-c2c(Cl)cc(Nc3n[nH]c(N)n3)cc2C(F)(F)F)cc1S(=O)(=O)NC1(C)CNC1 [Compound 215, hydrochloride] has a reported log10(EC50) of -0.95

---

Tested on: pseudotyped VSV G particles (VSVpp) in Huh7-high CD81 cells
Test: microbe, parasite or virus in culture
Format: cell-based, vesicular stomatitis virus
Conditions: read-out: VSVpp (EC50)
Quantity measured: EC50 (µM)
Give bare numbers, in µM.

The compound listed as CC(C)N1CC(C)(NS(=O)(=O)c2ccc(-c3c(Cl)cc(Nc4n[nH]c(N)n4)cc3C(F)(F)F)cc2)C1 [Compound 211] has a reported EC50 of 3.65

---

Would you mind telling me the reported EC50 of each entry?
System: Pseudotyped HCV GT1b particles (HCVpp), entry into Huh7-high CD81 cells
Assay: microbe, parasite or virus in culture
Assay type: cell-based, HCV GT1b Con1 strain
Conditions: Hepatitis C virus, GT1B, 72 h, read-out: HCVpp GT-1b (EC50, μM)
Where a name gives a salt, the structure may show the parent alone.
Give bare numbers, in µM.

Observe how each entry below is paired with its result.
N#Cc1cccc(-c2c(F)cc(Nc3nc(N)n[nH]3)cc2C(F)(F)F)c1; 25.1
COc1ccc(-c2c(Cl)cc(Nc3n[nH]c(N)n3)cc2C(F)(F)F)cc1S(=O)(=O)N(CC(F)(F)F)C1CCNCC1; 0.005
Nc1nc(Nc2cc(Cl)c(-c3ccc(OC4CCCN(CCC(F)(F)F)C4)cc3)c(C(F)(F)F)c2)n[nH]1 (stereo not shown) [Compound 133, hydrochloride]; 0.13
CN(C)C(=O)c1ccc(-c2c(F)cc(Nc3nc(N)n[nH]3)cc2C(F)(F)F)cc1; 0.568
CC(C)(C)OC(=O)N1CCCC(S(=O)(=O)c2ccc(-c3c(Cl)cc(Nc4n[nH]c(N)n4)cc3C(F)(F)F)cc2)C1 (stereo not shown); 0.008

Hi team, please reply with EC50 for each item in this list.
1. CN(CCNS(=O)(=O)c1ccc(-c2c(Cl)cc(Nc3n[nH]c(N)n3)cc2C(F)(F)F)cc1)C(=O)OC(C)(C)C
2. Nc1nc(Nc2cc(Cl)c(-c3ccc4c(c3)CC(=O)N4)c(Cl)c2)n[nH]1

Resp:
1. 0.005
2. 0.051

---

Tested on: Pseudotyped HCV GT1b particles (HCVpp), entry into Huh7-high CD81 cells
Experiment: microbe, parasite or virus in culture
Type: cell-based, HCV GT1b Con1 strain
Settings: Hepatitis C virus, GT1B, 72 h, read-out: HCVpp GT-1b (EC50, μM)
Where a name gives a salt, the structure may show the parent alone.
Returns the class for an entry based on its EC50. Class ranges: group 1 = under 0.05 µM, group 2 = from 0.05 µM up to 0.3 µM, group 3 = 0.3 µM and over

# count of solved cases: 3
COCCOc1ccc(-c2c(Cl)cc(Nc3n[nH]c(N)n3)cc2Cl)cc1; group 2
CC(C)(C)Oc1ccc(-c2c(Cl)cc(Nc3n[nH]c(N)n3)cc2C(F)(F)F)cc1; group 3
COc1ccc(-c2c(Cl)cc(Nc3n[nH]c(N)n3)cc2C(F)(F)F)cc1S(=O)(=O)N1CCN(C(=O)OC(C)(C)C)CC1; group 1

Req: Class label required: `Nc1n[nH]c(Nc2cc(F)c(-c3ccc(F)cc3)c(C(F)(F)F)c2)n1`
Resp: group 3

Req: Class label required: `Nc1nc(Nc2ccc(-c3cccc(F)c3)c(Cl)c2)n[nH]1`
Resp: group 3

Req: Class label required: `Nc1nc(Nc2ccc(-c3ccccc3)c(Cl)c2)n[nH]1`
Resp: group 3

Req: Class label required: `N#Cc1cccc(-c2c(Cl)cc(Nc3n[nH]c(N)n3)cc2Cl)c1`
Resp: group 2

Req: Class label required: `Nc1nc(Nc2cc(Cl)c(-c3ccc(S(=O)(=O)NC4COC4)cc3)c(C(F)(F)F)c2)n[nH]1`
Resp: group 1

Req: Class label required: `CC(C)(C)NS(=O)(=O)c1cccc(-c2c(Cl)cc(Nc3n[nH]c(N)n3)cc2C(F)(F)F)c1`
Resp: group 1

Req: Class label required: `Nc1nc(Nc2ccc(-c3ccc(F)cc3)c(Cl)c2)n[nH]1`
Resp: group 3

Req: Class label required: `CS(=O)(=O)c1ccc(-c2c(F)cc(Nc3n[nH]c(N)n3)cc2Cl)cc1`
Resp: group 2

Req: Class label required: `CC1(O)CCN(S(=O)(=O)c2ccc(-c3c(Cl)cc(Nc4n[nH]c(N)n4)cc3C(F)(F)F)cc2)CC1`
Resp: group 2

Req: Class label required: CC(C)(C)CCN1CCCC(S(=O)(=O)c2ccc(-c3c(Cl)cc(Nc4n[nH]c(N)n4)cc3C(F)(F)F)cc2)C1 (stereo not shown) [Compound 17, hydrochloride]
Resp: group 1

Req: Class label required: `Nc1nc(Nc2cc(Cl)c(-c3cccc(C(=O)O)c3)c(Cl)c2)n[nH]1`
Resp: group 3

Req: Class label required: Nc1nc(Nc2cc(Cl)c(-c3ccc(S(=O)(=O)NC[C@@H]4CCCN4)cc3)c(C(F)(F)F)c2)n[nH]1 [Compound 27, hydrochloride]
Resp: group 2

Req: Class label required: Nc1nc(Nc2cc(Cl)c(-c3ccc(S(=O)(=O)N4CCNCC45CC5)cc3)c(C(F)(F)F)c2)n[nH]1 [Compound 214, hydrochloride]
Resp: group 1

Source listed as patent US9693997B2.
